experimentDescription: In vivo PK assay
Design: species or system Sprague-Dawley rats
statedConditions: Sprague-Dawley, rat, plasma, iv; rats, 3 mg/kg i.v
Procedure: All animal experiments in this study have been approved by the Institutional Animal Care and Treatment Committee of Sichuan University in China and were carried out in accordance with the approved guidelines. […] RK-019 was dissolve in ethanol first, followed by mixed with Kolliphor EL, then filled with saline to the calculated volume. […] The compound concentrations of the target compound in the supernatant were measured by liquid chromatography–mass spectrometry/mass spectrometry (LC-MS/MS).
measurementType: Cmax
Remember to quote the unit after the number.

Q: Need Cmax of COc1cc(OC)cc(N(CCN[C@H](C)CO)c2ccc3ncc(-c4cnn(C)c4)c(=O)n3c2)c1 , thanks.
Ans: 461 ng/mL

====

experimentDescription: In vivo PK assay
Design: species or system Sprague-Dawley rats
statedConditions: Sprague-Dawley, rat, plasma, iv; rats, 3 mg/kg i.v
measurementType: AUC(0-t)

Q: Requested field: AUC(0-t). Item: COc1cc(OC)cc(N(CCN[C@H](C)CO)c2ccc3ncc(-c4cnn(C)c4)c(=O)n3c2)c1
Ans: 763 ng·h/mL

====

experimentalTarget: UniProtKB P21802
Sequence (P21802 22-821): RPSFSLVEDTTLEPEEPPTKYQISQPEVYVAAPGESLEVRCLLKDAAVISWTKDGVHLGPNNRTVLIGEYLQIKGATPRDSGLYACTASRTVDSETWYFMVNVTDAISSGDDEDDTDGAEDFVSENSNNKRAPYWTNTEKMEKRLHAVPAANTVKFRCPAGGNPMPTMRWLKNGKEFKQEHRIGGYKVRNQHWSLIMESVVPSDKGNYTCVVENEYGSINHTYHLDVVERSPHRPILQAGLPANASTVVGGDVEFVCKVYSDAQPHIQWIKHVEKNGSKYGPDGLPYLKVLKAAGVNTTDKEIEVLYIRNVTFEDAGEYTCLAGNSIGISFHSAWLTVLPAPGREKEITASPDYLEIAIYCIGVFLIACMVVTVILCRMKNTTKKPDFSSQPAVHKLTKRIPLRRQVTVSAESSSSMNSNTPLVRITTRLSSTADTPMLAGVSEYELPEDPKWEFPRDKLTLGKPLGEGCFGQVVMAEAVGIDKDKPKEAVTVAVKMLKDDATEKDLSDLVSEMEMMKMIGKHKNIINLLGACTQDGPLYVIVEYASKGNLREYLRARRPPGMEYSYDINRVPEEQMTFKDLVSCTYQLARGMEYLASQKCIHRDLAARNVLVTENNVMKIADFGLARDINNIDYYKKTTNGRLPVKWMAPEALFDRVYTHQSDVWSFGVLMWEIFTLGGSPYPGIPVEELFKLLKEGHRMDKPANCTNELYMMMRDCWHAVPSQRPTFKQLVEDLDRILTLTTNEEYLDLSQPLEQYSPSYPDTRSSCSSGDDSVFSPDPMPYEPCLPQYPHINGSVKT
measurementType: IC50 (nM)
Just the number please, in nM, no unit attached.

Q: Request the reported IC50 associated with COc1cc(OC)cc(N(CCN[C@H](C)CO)c2ccc3ncc(-c4cnn(C)c4)c(=O)n3c2)c1 [RK-019]
Ans: 4.6

====

Tested on: SNU-16 cells
experimentDescription: Cell viability assay (MTT)
Type: cell-based
statedConditions: Homo sapiens; SNU-16, mean ± SD
Experimental: For suspension and mixed suspension adherent cells, the cells were seeded in 96-well plate with different cell density, 0.5×10^4 per well for 96 h treatment, 1×10^4 per well for 72 h treatment, 2×10^4 per well for 48 h treatment, and 5×10^4 per well for 24 h treatment. […] Formazan formed by the living cells was dissolved with DMSO and the absorbance was measured using a microplate spectrophotometer (MultiskanFC, ThermoFisher, Waltham, MA, United States) at 570 nm. […]
measurementType: pIC50
On this scale, pIC50 is minus log10 of a concentration expressed in M (mol/L).

Q: For the compound shown here, COc1cc(OC)cc(N(CCN[C@H](C)CO)c2ccc3ncc(-c4cnn(C)c4)c(=O)n3c2)c1 [RK-019] , give the reported pIC50.
Ans: 8.40

====

experimentDescription: In vivo PK assay
Parameters: species or system Sprague-Dawley rats
statedConditions: Sprague-Dawley, rat, plasma, po; rats, 30 mg/kg p.o
measurementType: Tmax (h)
Express your answer in h, writing the number without its unit.

Q: I have this compound here, COc1cc(OC)cc(N(CCN[C@H](C)CO)c2ccc3ncc(-c4cnn(C)c4)c(=O)n3c2)c1 , and I need its recorded Tmax.
Ans: 2.67

====

experimentalTarget: FGFR4 (Homo sapiens)
Sequence (P22455 22-802): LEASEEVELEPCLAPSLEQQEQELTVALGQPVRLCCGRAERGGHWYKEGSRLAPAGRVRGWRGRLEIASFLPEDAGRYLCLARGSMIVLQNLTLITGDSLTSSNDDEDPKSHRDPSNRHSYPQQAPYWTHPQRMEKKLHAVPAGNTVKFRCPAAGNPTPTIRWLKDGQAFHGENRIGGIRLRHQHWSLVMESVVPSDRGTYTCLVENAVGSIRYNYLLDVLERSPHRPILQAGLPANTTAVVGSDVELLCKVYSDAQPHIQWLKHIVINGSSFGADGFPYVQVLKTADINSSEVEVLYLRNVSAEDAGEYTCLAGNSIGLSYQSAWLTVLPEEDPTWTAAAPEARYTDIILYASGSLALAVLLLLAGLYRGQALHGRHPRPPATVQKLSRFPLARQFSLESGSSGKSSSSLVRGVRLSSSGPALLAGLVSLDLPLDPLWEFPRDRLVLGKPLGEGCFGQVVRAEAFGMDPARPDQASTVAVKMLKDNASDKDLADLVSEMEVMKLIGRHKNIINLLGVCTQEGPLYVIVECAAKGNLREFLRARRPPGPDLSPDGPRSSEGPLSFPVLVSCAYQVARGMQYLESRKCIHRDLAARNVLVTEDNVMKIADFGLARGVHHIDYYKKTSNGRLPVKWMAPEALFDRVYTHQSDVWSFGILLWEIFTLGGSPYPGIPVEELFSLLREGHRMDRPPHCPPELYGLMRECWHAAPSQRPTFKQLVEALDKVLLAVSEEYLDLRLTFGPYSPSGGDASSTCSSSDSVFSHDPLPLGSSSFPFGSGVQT
measurementType: IC50 (nM)
Answer with a number only, understood to be in nM.

Q: Can you share its IC50? I mean this compound: COc1cc(OC)cc(N(CCN[C@H](C)CO)c2ccc3ncc(-c4cnn(C)c4)c(=O)n3c2)c1
Ans: 40.7

====

experimentDescription: In vivo PK assay
Design: species or system Sprague-Dawley rats
statedConditions: Sprague-Dawley, rat, plasma, po; rats, 30 mg/kg p.o
measurementType: AUC(0-t) (ng·h/mL)
# output: bare number, implied unit ng·h/mL

Q: Consider the molecule shown here: COc1cc(OC)cc(N(CCN[C@H](C)CO)c2ccc3ncc(-c4cnn(C)c4)c(=O)n3c2)c1 [RK-019] What is its recorded AUC(0-t)?
Ans: 1450

====

experimentDescription: In vivo PK assay
Design: species or system Sprague-Dawley rats
statedConditions: Sprague-Dawley, rat, plasma, po; rats, 30 mg/kg p.o
measurementType: Cmax (ng/mL)
Report the value in ng/mL with no unit label.

Q: Please give the measured Cmax for this molecule: COc1cc(OC)cc(N(CCN[C@H](C)CO)c2ccc3ncc(-c4cnn(C)c4)c(=O)n3c2)c1 [RK-019]
Ans: 235
